# assay.protocol: P. aeruginosa biofilm formation inhibitors, primary screen, PAO1 strain, BacTiter-Glo luminescence, LB-PBS (AID 1144)
# condition.parameters: 12 h, higher = more signal
Param threshold (-0.9) applies to z-score; output satisfied when value >= threshold, not satisfied when value < threshold.

>  <molecule>
CCOC(=O)C1CCCCN1 (stereo not drawn)

>  <classification>
satisfied

$$$$
>  <molecule>
CN1C(=O)C2C=CC(C(O)c3ccc(F)cc3)N(Nc3ccccc3)C2C1=O (stereo not drawn)

>  <classification>
satisfied

$$$$
>  <molecule>
COC(=O)c1c2oc(c1C(=O)OC)C(=O)N(Cc1ccccc1)Cc1cn(nn1)C[C@H](Cc1ccccc1)NC(=O)N[C@H](CO)CC2

>  <classification>
not satisfied

$$$$
>  <molecule>
C=CCN1Cc2ccccc2[C@H]2OC(c3ccc(OCCCO)cc3)=N[C@@]2(CC=C)C1=O

>  <classification>
satisfied

$$$$
>  <molecule>
C=C(/C(=C/C[C@H](OC(C)=O)c1cccc(OCCO)c1)c1cnc2ccccc2c1)C(C)C

>  <classification>
satisfied

$$$$
>  <molecule>
C[C@]1(C(=O)NC2CC2)c2ccccc2C(=O)N(Cc2ccccc2)[C@H]1c1ccc(CO)cc1

>  <classification>
satisfied

$$$$
>  <molecule>
COC(=O)c1c2oc(c1C(=O)OC)C(=O)N(C)Cc1cn(nn1)C[C@H](Cc1ccccc1)NC(=O)N[C@H](CO)CC2

>  <classification>
satisfied

$$$$
>  <molecule>
COC(=O)c1ccc([C@H](NC(=O)c2ccco2)[C@]2(C)C[C@H]2C2CCCCC2)cc1

>  <classification>
satisfied

$$$$
>  <molecule>
COc1cc(CO)cc(I)c1O[C@H]1C=C(C(=O)NCCO)C[C@@H](NCc2ccc(F)cc2)[C@@H]1O

>  <classification>
satisfied

$$$$
>  <molecule>
COc1cc2c(cc1OC)CN(C(=O)[C@@H]1[C@H]3C(=O)O[C@H](c4ccccc4)[C@H](c4ccccc4)N3[C@H](c3ccc(OCCO)cc3)[C@@]13C(=O)Nc1ccccc13)CC2

>  <classification>
not satisfied

$$$$
>  <molecule>
COc1ccc(C(O)C2C=CC3C(=O)N(c4ccccc4)C(=O)C3N2Nc2ccc([N+](=O)[O-])cc2)cc1 (stereo not drawn)

>  <classification>
satisfied

$$$$
>  <molecule>
COCCOC(=O)N1C(=O)[C@@]2(c3cc(C#CCCO)ccc31)[C@H](c1ccccc1OCCO)N1[C@H](c3ccccc3)[C@H](c3ccccc3)OC(=O)[C@H]1[C@@H]2C(=O)Nc1nc2ccccc2s1

>  <classification>
satisfied

$$$$
>  <molecule>
C=CCOC(=O)[C@H]1[C@@H]2C(=O)O[C@@H](c3ccccc3)[C@@H](c3ccccc3)N2[C@@H](c2ccc(OCCOC(=O)[C@@H]3C[C@@H]4C(=O)N[C@@H](CCCCNC(C)=O)C(=O)N4[C@@H]3c3ccc(O)cc3)cc2)[C@]12C(=O)Nc1ccc(I)cc12

>  <classification>
satisfied

$$$$
>  <molecule>
C=C[C@@H](OC)[C@H](OC(=O)Nc1ccc(SC)cc1)c1ccc(O)c(F)c1

>  <classification>
not satisfied

$$$$
>  <molecule>
C[N+](C)(C)CCCC[C@@H]1NC(=O)[C@H]2C[C@@H](C(=O)NCCCCCCN)[C@@H](c3ccc(O)cc3)N2C1=O

>  <classification>
satisfied

$$$$
>  <molecule>
COc1ccccc1CN1C(=O)c2ccccc2[C@@]2(Cc3ccccc3N(CC(F)(F)F)C2=O)[C@@H]1c1ccc(CO)cc1

>  <classification>
satisfied

$$$$
>  <molecule>
C=C(CCCC)/C(=C/C[C@@H](OC(=O)c1ccncc1)c1ccccc1OCCO)c1cnc2ccccc2c1

>  <classification>
satisfied

$$$$
>  <molecule>
COC(=O)C(CC#Cc1ccc2c(c1)[C@]1(C(=O)N2)[C@H](C(=O)N2CCN(c3ncccn3)CC2)[C@H]2C(=O)O[C@H](c3ccccc3)[C@H](c3ccccc3)N2[C@@H]1c1ccc(OCCO)cc1)C(=O)OC

>  <classification>
not satisfied

$$$$
>  <molecule>
CC(C)[Si](C#CCCCC#N)(O[C@H](c1ccccc1)c1cn([C@H](CO)Cc2ccccc2)nn1)C(C)C

>  <classification>
satisfied

$$$$
>  <molecule>
[N-]=[N+]=NCc1ccccc1[C@H]1OC(c2ccc(OCCCO)cc2)=N[C@@]1(CCS(=O)(=O)c1ccccc1)C(=O)NCC(O)CO (stereo partly drawn)

>  <classification>
not satisfied

$$$$
>  <molecule>
COc1ccc([Si](C)(C)[C@H]2[C@H](CCO)O[C@@]3(C(=O)N(Cc4cccc(N5C(=O)COc6ccccc65)c4)c4ccccc43)[C@@H]2C)cc1

>  <classification>
not satisfied

$$$$
>  <molecule>
COCCCNC(=O)[C@@]1(Sc2ccc(C)cc2)CC(=O)N(C2CCCCC2)[C@@H]1c1ccc(CO)cc1

>  <classification>
satisfied

$$$$
>  <molecule>
C=CC[C@]1(C(=O)NCCN2CCOCC2)N=C(c2ccc(OCCCO)cc2)O[C@H]1c1ccccc1CN=[N+]=[N-]

>  <classification>
satisfied

$$$$
>  <molecule>
[N-]=[N+]=NCc1ccccc1[C@@H]1OC(c2ccc(OCCCO)cc2)=N[C@]1(CCS(=O)(=O)c1ccccc1)C(=O)NCC(O)CO (stereo partly drawn)

>  <classification>
satisfied

$$$$

----------
# assay.protocol: S. cerevisiae RM11-1a growth modifiers, primary screen, strain RM11-1a, OD600, basal, 24 h (AID 1177);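 also: cultures grown under basal conditions with no added stressor; test concentration not given here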
# condition.parameters: OD600, 24 h, higher = more signal, called active from +8 up or from −8 down
z-score by entry:
value.type: z-score

>  <compound>
C=C[C@@H](COC(C)=O)N(C(=O)OC(C)(C)C)S(=O)(=O)c1ccc(Br)cc1

>  <assay.result>
0.317

$$$$
>  <compound>
C=CCOC(=O)[C@H]1[C@@H]2C(=O)O[C@@H](c3ccccc3)[C@@H](c3ccccc3)N2[C@@H](c2ccc(OCCOC(=O)[C@@H]3C[C@@H]4C(=O)N5CCC[C@H]5C(=O)N4[C@@H]3c3ccc(O)cc3)cc2)[C@]12C(=O)Nc1ccc(I)cc12

>  <assay.result>
1.08

$$$$
>  <compound>
CCCCC(O)C1C=CC2C(=O)N(c3ccccc3)C(=O)C2N1Nc1ccc(C(C)C)cc1 (stereo not drawn)

>  <assay.result>
0.477

$$$$
>  <compound>
C[C@]1(C(=O)NC2CC2)c2ccccc2C(=O)N(Cc2ccccc2)[C@H]1c1ccc(CO)cc1

>  <assay.result>
-1.02

$$$$
>  <compound>
COc1ccc([Si](C)(C)[C@@H]2[C@@H](CC(=O)N3Cc4ccccc4C[C@H]3CO)O[C@]3(C(=O)N(C)c4ccccc43)[C@H]2C)cc1

>  <assay.result>
1.87

$$$$
>  <compound>
O=C1OCC=C[C@H]2OC34C=CCN(Cc5ccccc5)C(=O)[C@H]3N(CCCCCCO)C(=O)[C@@H]4[C@@H]12 (stereo partly drawn)

>  <assay.result>
-0.739

$$$$
>  <compound>
[N-]=[N+]=NCc1ccccc1C[C@@]1(C(=O)N2CCOCC2)N=C(c2ccc(OCCCO)cc2)O[C@@H]1c1ccccc1

>  <assay.result>
-0.0165

$$$$
>  <compound>
O=C(NCC(F)(F)F)[C@@H]1c2ccccc2C(=O)N(Cc2ccc(OC(F)(F)F)cc2)[C@H]1c1ccc(CO)cc1

>  <assay.result>
0.0971

$$$$
>  <compound>
[N-]=[N+]=Nc1ccccc1C[C@]1(C(=O)N2CCOCC2)N=C(c2ccc(OCCCO)cc2)O[C@H]1c1ccccc1

>  <assay.result>
1.05

$$$$
>  <compound>
COC(=O)[C@@]1(Cc2ccc(F)cc2)[C@H]2c3cc(C(=O)N(C)C)n(CCc4ccc(O)c(OC)c4)c3C[C@H]2CN1C(=O)c1ccccc1

>  <assay.result>
0.898

$$$$
>  <compound>
COC(=O)[C@@]1(Cc2ccc(OC)cc2)[C@H]2c3cc(C(=O)N(C)C)n(Cc4ccc(Cl)c(C(F)(F)F)c4)c3C[C@H]2CN1C(=O)c1ccccc1

>  <assay.result>
0.673

$$$$
>  <compound>
CN(C)C(=O)[C@@]1(CCS(=O)(=O)c2ccccc2)N=C(c2ccc(OCCCO)cc2)O[C@H]1c1ccccc1

>  <assay.result>
-0.0905

$$$$
>  <compound>
CC(CO)N1C(=O)[C@@H]2[C@H]3C(=O)OCC=C[C@H]3OC23C=CCN(Cc2ccccc2)C(=O)[C@@H]13 (stereo partly drawn)

>  <assay.result>
-1.21

$$$$

----------
# Test system: Plasmodium falciparum Sir2 (PF13_0152, Sir2A)
# assay.protocol: pfSir2 binders on small-molecule microarrays, primary screen, biochemical, small-molecule microarray, 635 nm fluorescence (AID 1098);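 also: score merges spot fluorescence intensity with its signal-to-noise ratio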
# condition.parameters: small-molecule microarray binding, fluorescence 635 nm; higher = more signal
Listed below: composite z-score values for each entry.
value.type: composite z-score

>  <compound>
[N-]=[N+]=NCc1ccccc1[C@H]1OC(c2ccc(OCCCO)cc2)=N[C@@]1(CCS(=O)(=O)c1ccccc1)C(=O)NCC(O)CO (some centres undefined)

>  <assay.result>
1.54

$$$$
>  <compound>
CC(C)C(=C=CC[C@H](O)c1cccc(OCCO)c1)C[C@H](O)c1cc(Cl)cc(Cl)c1O

>  <assay.result>
0.507

$$$$
>  <compound>
COC(=O)[C@H](Cc1ccccc1)N1CC(/C=C/C2CC2)=C[C@H]1[C@H](O)Cc1ccccc1

>  <assay.result>
0.728

$$$$
>  <compound>
COC(=O)[C@@]1(Cc2ccc(F)cc2)[C@H]2c3cc(C(=O)N(C)C)n(Cc4cc(F)cc5c4OCOC5)c3C[C@H]2CN1C(=O)c1ccccc1

>  <assay.result>
0.743

$$$$
